pIC50: −log10 of the molar value.
Literature roundup of MAGL (Homo sapiens) data, read-out pIC50.
MEASURE: pIC50

A: O=C1CO[C@H]2CCN(C(=O)N3CC(COc4ccc5ccc(=O)oc5c4)C3)C[C@H]2N1
B: O=C1CO[C@H]2CCN(C(=O)N3CC(Oc4ccc(C(F)(F)F)c(C5CC5)c4)C3)C[C@H]2N1
C: O=C(c1ccccc1)N1CC[C@H](NC2CN(C(=O)c3sc4cc(C(F)(F)F)ccc4c3F)C2)C1
D: CCC1CCCN1c1ccc(C2CN(C(=O)N3CC[C@@H]4OCC(=O)N[C@@H]4C3)C2)cc1 (stereo partly shown)
E: CN(C(=O)Cn1ccc2cc(C(=O)N3CC(N[C@H]4CCN(C(=O)c5nccs5)C4)C3)ccc21)c1ccccc1
Request: Rank items: key pIC50, increasing. Give me the labels in the order the question wants.
Response: E, A, C, B, D
(E: 5.77, A: 6.31, C: 6.81, B: 7.74, D: 9.40)
